FYI, the data here is from PubChem BioAssay AID330.

System: P388 leukemia ip, CD2F1 mice, survival T/C
Assay: NCI In Vivo Anticancer Drug Screen. Data for tumor model P388 Leukemia (intraperitoneal) in CD2F1 (CDF1) mice
Details: endpoint: median survival time; dose: 100.0 mg/kg/injection; schedule: Q04DX003 (ip); vehicle: saline
Experimental: The antitumor activity of compounds was measured in mice bearing transplantable tumors. Survival or tumor size were measured and the results are expressed as the measurement made in the treated group (T) divided by the measurement made in the vehicle treated control group (C). The tumor model used in this assay is P388 Leukemia (intraperitoneal) in CD2F1 (CDF1) mice
Toxic doses and inconclusive results are not listed. Rule for the calls: active = survival T/C of 150% or more; inactive = T/C below 125% in these data.
Pick one: Y (active), N (inactive)

- Compound: "CCOC(=O)NC(NC(=O)OCC)c1cccc(F)c1"
  Category Label: "N"

Problem: Answer briefly: the call reported for "O=S(=O)(O)c1cccnc1" in this assay.
Result: N

Problem: Answer briefly: the call reported for CC1(C)OCC2OC=CC(=O)C2O1 (configuration not stated) in this assay.
Result: N

Problem: Answer briefly: the call reported for "O=C(CCS(=O)(=O)CCC(=O)c1ccco1)c1ccco1" in this assay.
Result: N

Problem: Answer briefly: the call reported for "O=C1CCCN1" in this assay.
Result: N

====

test system: P388 leukemia ip, CD2F1 mice, survival T/C; test: NCI In Vivo Anticancer Drug Screen. Data for tumor model P388 Leukemia (intraperitoneal) in CD2F1 (CDF1) mice; settings: endpoint: median survival time; dose: 240.0 mg/kg/injection; schedule: Q01DX005 (ip); vehicle: saline; higher = longer survival
Inconclusive results and toxic doses are left out.
Parameter Measured: T/C

Item: "NC(=O)[C@@H]1CCCN1C(=O)c1cccnc1" | T/C: 103 % of control

Item: CCC(O)C#C[Si](C)(C)C (stereo not given) | T/C: 103 % of control

====

Test system: P388 leukemia ip, CD2F1 mice, survival T/C
Experiment: NCI In Vivo Anticancer Drug Screen. Data for tumor model P388 Leukemia (intraperitoneal) in CD2F1 (CDF1) mice
Conditions: endpoint: median survival time; dose: 50.0 mg/kg/injection; schedule: Q01DX005 (ip); vehicle: Klucel (hydroxypropylcellulose) (HPC); higher = longer survival
Experimental: The antitumor activity of compounds was measured in mice bearing transplantable tumors. Survival or tumor size were measured and the results are expressed as the measurement made in the treated group (T) divided by the measurement made in the vehicle treated control group (C). The tumor model used in this assay is P388 Leukemia (intraperitoneal) in CD2F1 (CDF1) mice
Toxic doses and inconclusive results are not listed.
T/C for assorted compounds

- Compound: "COc1cc([C@@H]2c3cc(O)c(OC)cc3C[C@H]3C(=O)OC[C@@H]23)ccc1O"
  T/C: "96 % of control"
- Compound: "CCOC(=O)c1cnc2c(ccc3cc(OC)ccc32)c1NCCCN(CC)CC"
  T/C: "97 % of control"
- Compound: "CCOC(=O)CSC(=O)c1cccnc1Oc1ccccc1"
  T/C: "94 % of control"
- Compound: "CC(SCCCCCCCCCCSC(C)C(=O)O)C(=O)O (stereo not given)"
  T/C: "93 % of control"

Here is the next item to consider.
Sample "CC(C)(CNC(=O)C12CC3CC(CC(C3)C1)C2)NC(=O)C12CC3CC(CC(C3)C1)C2" , system: P388 leukemia ip, CD2F1 mice, survival T/C. Its T/C is 93 % of control

====

test system: P388 leukemia ip, CD2F1 mice, survival T/C; experiment: NCI In Vivo Anticancer Drug Screen. Data for tumor model P388 Leukemia (intraperitoneal) in CD2F1 (CDF1) mice; conditions: endpoint: median survival time; dose: 50.0 mg/kg/injection; schedule: Q01DX001 (ip); vehicle: Klucel (hydroxypropylcellulose) (HPC); higher = longer survival
Inconclusive results and toxic doses are left out.
Parameter Measured: T/C

Illustrative cases are given below, each with its answer.
- Molecule: "Oc1cc2c(cc1C1COc3cc(OCc4ccccc4)ccc3C1)OCO2 (stereo not drawn)"
  Parameter Measured: "T/C"
  Obs Value: "95 % of control"
- Molecule: "O=CN1CCCC1Cc1ccc2ccccc2c1 (stereo not drawn)"
  Parameter Measured: "T/C"
  Obs Value: "107 % of control"
- Molecule: "CN(C)c1ccc(-c2nnc3c(c(=O)n(C)c(=O)n3C)[n+]2[O-])cc1"
  Parameter Measured: "T/C"
  Obs Value: "93 % of control"
- Molecule: "CCOC(=O)C(Cc1ccc(Oc2nc3ccccc3o2)cc1)NC(C)=O (stereo not drawn)"
  Parameter Measured: "T/C"
  Obs Value: "112 % of control"
- Molecule: "O=C(CCl)NNc1cccc(Cl)n1"
  Parameter Measured: "T/C"
  Obs Value: "98 % of control"

Item: "Cc1ccccc1N=Nc1c(O)n(-c2ccccc2Cl)c(=S)n(-c2ccccc2)c1=O" | T/C: 104 % of control

Item: "Cc1c(N)n[nH]c1-c1ccccc1" | T/C: 100 % of control

Item: NC1(c2ccccc2)CC2CCC1C2 (stereo not drawn) | T/C: 100 % of control

====

test system: P388 leukemia ip, CD2F1 mice, survival T/C; assay: NCI In Vivo Anticancer Drug Screen. Data for tumor model P388 Leukemia (intraperitoneal) in CD2F1 (CDF1) mice; settings: endpoint: median survival time; dose: 25.0 mg/kg/injection; schedule: Q01DX009 (ip); vehicle: saline with Tween-80
Inconclusive results and toxic doses are left out. The calls were made as follows: active = survival T/C of 150% or more; inactive = T/C below 125% in these data.
Pick one: true (1) for active, false (0) for inactive

Example entries begin here.
- Molecule: "CC(C)N1C(=O)C=C(c2ccc([N+](=O)[O-])cc2)C1=O"
  Subject Of Test: "P388 leukemia ip, CD2F1 mice, survival T/C"
  Category Label: "false (0)"
- Molecule: "COc1ccc(-c2sc(/N=C/c3cc(Br)cc(Br)c3O)c(C#N)c2C)cc1OC"
  Subject Of Test: "P388 leukemia ip, CD2F1 mice, survival T/C"
  Category Label: "false (0)"
- Molecule: "NC(=S)N/N=C/c1ccc(OC(=O)COc2ccccc2)cn1"
  Subject Of Test: "P388 leukemia ip, CD2F1 mice, survival T/C"
  Category Label: "true (1)"
- Molecule: "CCOC(=O)c1nnn(Cc2ccccc2)c1N"
  Subject Of Test: "P388 leukemia ip, CD2F1 mice, survival T/C"
  Category Label: "false (0)"
- Molecule: "CC(=O)N1C(=O)C2C3C=CC(C3)C2C(=O)N1C(C)=O (stereo not given)"
  Subject Of Test: "P388 leukemia ip, CD2F1 mice, survival T/C"
  Category Label: "false (0)"

Problem: Answer briefly: the call reported for COC1CCC2=C(C1)C(=O)CC1c3ccccc3CN21 (stereo not given) in this assay.
Result: false (0)

Problem: Answer briefly: the call reported for "COc1cc2cc[n+]3c(c2cc1OC)-c1c2cc(OC)c(OC)cc2cc[n+]1CC3" in this assay.
Result: false (0)

====

tested on: P388 leukemia ip, CD2F1 mice, survival T/C; assay: NCI In Vivo Anticancer Drug Screen. Data for tumor model P388 Leukemia (intraperitoneal) in CD2F1 (CDF1) mice; settings: endpoint: median survival time; dose: 50.0 mg/kg/injection; schedule: Q01DX009 (ip); vehicle: Klucel (hydroxypropylcellulose) (HPC); higher = longer survival
Toxic doses and inconclusive results are not listed.
T/C for assorted molecules

Illustrative cases are given below, each with its answer.
- Molecule: "Cn1c(=O)c2cn[nH]c2n(C)c1=O"
  T/C: "104 % of control"
- Molecule: "O=C(NNc1ccccc1)c1ccccc1"
  T/C: "113 % of control"
- Molecule: "O=C1c2ccccc2C(=O)N1SN1C(=O)c2ccccc2C1=O"
  T/C: "110 % of control"
- Molecule: "CCCCCCCCCCCCCCCCCc1cccc(O)c1"
  T/C: "114 % of control"
- Molecule: "O=C(Sc1ccc(Cl)cc1)N1CCN(C(=O)Sc2ccc(Cl)cc2)CC1"
  T/C: "92 % of control"
- Molecule: "OC1CC2CCCCC2CC1Cl (stereo not drawn)"
  T/C: "90 % of control"
- Molecule: "CCCCCCCCCCCCCCCCCCSC1=CC(=O)C(OC)=C(OC)C1=O"
  T/C: "97 % of control"
- Molecule: "CCN(CC)CC(O)c1c(-c2ccccc2)c(-c2ccccc2)c2n1CCC2 (stereo not drawn)"
  T/C: "103 % of control"

Item: "CCCCNC1=C(Cl)C(=O)c2ccccc2C1=O" | T/C: 92 % of control

Item: "Nc1ccccc1-c1nc2ccncc2[nH]1" | T/C: 105 % of control

Item: "CC1=NN(c2cccc(C(F)(F)F)c2)C(=O)C1" | T/C: 106 % of control

Item: O=C1CCCC(C(Sc2ccccc2)(Sc2ccccc2)Sc2ccccc2)C1 (stereo not drawn) | T/C: 99 % of control

Item: COC1/C=C\OC2(C)Oc3c(C)c(O)c4c(O)c(c5c(c4c3C2=O)OC[N+](C)=C5)NC(=O)/C(C)=C\C=C\C(C)C(O)C(C)C(O)C(C)C(OC(C)=O)C1C (stereo not drawn) | T/C: 97 % of control

Item: Nc1nc2ncc(CCNc3ccc(C(=O)NC(CCC(=O)O)C(=O)O)cc3)nc2c(=O)[nH]1 (stereo not drawn) | T/C: 107 % of control

Item: COC(=O)C1=C(C(=O)OC)C2C=CC1C1C(Br)C(Br)C21 (stereo not drawn) | T/C: 100 % of control

Item: "CSc1nc(-c2ccccc2)cc(=O)[nH]1" | T/C: 118 % of control

Item: "C/C(N)=C\C(=S)Nc1ccccc1" | T/C: 104 % of control

Item: "O=C(COc1ccc(Cl)cc1Cl)N1CCNC1=S" | T/C: 100 % of control
